Molecular target: Tyrosyl-tRNA synthetase, putative (Trypanosoma cruzi (strain CL Brener))
Sequence (whole entry): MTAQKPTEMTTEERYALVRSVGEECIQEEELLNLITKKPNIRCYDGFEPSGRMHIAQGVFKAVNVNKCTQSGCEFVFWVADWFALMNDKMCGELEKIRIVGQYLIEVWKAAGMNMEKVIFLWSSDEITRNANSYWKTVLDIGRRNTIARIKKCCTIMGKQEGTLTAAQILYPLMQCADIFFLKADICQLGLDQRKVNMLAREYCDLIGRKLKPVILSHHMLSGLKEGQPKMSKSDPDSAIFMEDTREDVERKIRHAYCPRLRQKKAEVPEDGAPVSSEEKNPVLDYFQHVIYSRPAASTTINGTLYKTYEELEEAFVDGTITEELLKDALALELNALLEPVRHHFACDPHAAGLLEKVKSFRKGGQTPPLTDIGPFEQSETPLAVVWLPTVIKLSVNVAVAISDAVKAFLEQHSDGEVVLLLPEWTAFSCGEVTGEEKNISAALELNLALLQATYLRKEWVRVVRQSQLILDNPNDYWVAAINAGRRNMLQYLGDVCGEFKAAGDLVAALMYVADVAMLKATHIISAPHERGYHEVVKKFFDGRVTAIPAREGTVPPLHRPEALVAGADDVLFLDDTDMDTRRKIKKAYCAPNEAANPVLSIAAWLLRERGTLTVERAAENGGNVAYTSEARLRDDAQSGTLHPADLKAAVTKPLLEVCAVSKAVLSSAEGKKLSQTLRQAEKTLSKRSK
Assay: Trypanosoma cruzi tyrosyl tRNA synthetase (TcYRS) _High Tyrosine SOP
Format: functional
Set-up: scale not given: in the data most compounds retested in dose-response had high values
Details: 30 µM
Could you please report measured Percent Effect for the items listed next?
Numbers only, in %.

Each molecule below has a recorded value; state its Percent Effect.
1. c1cnc(N2CCCC3(CCN(Cc4ccncc4)C3)C2)nc1 (stereo unspecified)
2. COc1ncccc1CN1C[C@@H]2COC[C@]2(COCC2CC2)C1

1.08
6.35
